Values from ChEMBL document CHEMBL3351692

- STUDY TARGET: Protein kinase C iota type (Homo sapiens) (UniProt P41743)
- ASSAY NOTES: Inhibition of PKCiota (unknown origin) at 20 uM
ENDPOINT: inhibition (%)

Exercise: Supply inhibition measured with Protein kinase C iota type (Homo sapiens) (UniProt P41743) for Oc1ccc(C2CC(c3ccccc3)=NN2c2cccc(Cl)c2)cc1 (stereo not drawn) .
Solution: 45.5

[I] CC(C)(C)C1=NN(c2cccc(F)c2)C(c2ccc(O)cc2)C1 (stereo not drawn)
[II] CC(C)(C)C1=NN(c2ccc(F)c(Cl)c2)C(c2ccc(O)cc2)C1 (stereo not drawn)
[III] CC(C)(C)C1=NN(c2ccc(F)c(F)c2F)C(c2ccc(O)cc2)C1 (stereo not drawn)
[IV] Oc1ccc(C2CC(c3cccs3)=NN2c2ccc(C(F)(F)F)cc2)cc1 (stereo not drawn)
[V] CC(C)(C)C1=NN(c2ccc(Cl)cc2)C(c2ccc(O)c(Cl)c2)C1 (stereo not drawn)
Exercise: Parameters: sort_field (inhibition), sort_dir (desc). Give the labels in the order specified.
Solution: IV, II, I, III, V
(IV: 45.9%, II: 31.6%, I: 19.3%, III: 7.8%, V: 0%)

[a] CC(C)(C)C1=NN(c2cccc(C(F)(F)F)c2)C(c2ccc(O)cc2)C1 (stereo not drawn)
[b] Nc1ccc(C2=NN(c3ccc(Cl)cc3)C(c3ccc(O)cc3)C2)cc1 (stereo not drawn)
Exercise: Rank a against b by their inhibition values and give the higher one. Refer to your chosen entry by its label in the reply.
Solution: b
(b: 38.7%, a: 17%)

[a] Oc1ccc(C2CC(c3ccc[nH]3)=NN2c2cccc(Cl)c2)cc1 (stereo not drawn)
[b] Oc1ccccc1C1=NN(c2cccc(Cl)c2)C(c2ccc(O)c(F)c2F)C1 (stereo not drawn)
Exercise: Hello, I am sorting some records. Could you say if a or b has the smaller inhibition value? Refer to your chosen entry by its label in the reply.
Solution: a
(a: 20.3%, b: 39.2%)

###

- STUDY TARGET: Protein kinase C iota type (Homo sapiens) (UniProt P41743)
- Sequence (whole entry): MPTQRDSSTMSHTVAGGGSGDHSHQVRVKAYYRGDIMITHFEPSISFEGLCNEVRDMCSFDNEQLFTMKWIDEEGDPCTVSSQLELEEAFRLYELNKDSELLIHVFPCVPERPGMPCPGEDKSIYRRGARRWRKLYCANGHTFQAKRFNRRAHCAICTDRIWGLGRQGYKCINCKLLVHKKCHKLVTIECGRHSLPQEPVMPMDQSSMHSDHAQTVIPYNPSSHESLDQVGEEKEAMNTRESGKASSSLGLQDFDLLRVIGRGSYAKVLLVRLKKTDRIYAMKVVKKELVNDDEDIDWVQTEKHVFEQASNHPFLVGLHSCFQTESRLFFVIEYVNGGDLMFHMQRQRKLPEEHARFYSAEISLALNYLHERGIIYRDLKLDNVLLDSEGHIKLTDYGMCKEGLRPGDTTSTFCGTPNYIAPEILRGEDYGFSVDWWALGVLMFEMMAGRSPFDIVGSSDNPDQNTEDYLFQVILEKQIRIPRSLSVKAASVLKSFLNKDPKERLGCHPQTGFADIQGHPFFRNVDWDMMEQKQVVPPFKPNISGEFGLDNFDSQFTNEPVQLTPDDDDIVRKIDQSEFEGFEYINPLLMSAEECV
- ASSAY NOTES: Inhibition of PKCiota (unknown origin) at 20 uM
ENDPOINT: inhibition (%)

Look over these answered cases.
Exercise: Output measured inhibition for this item: Oc1ccc(C2CC(c3ccccn3)=NN2c2cccc(Cl)c2)cc1 (stereo not drawn)
Solution: 24.1

Exercise: Output measured inhibition for this item: CC1C(c2ccccc2O)=NN(c2cccc(Cl)c2)C1c1ccc(O)c(F)c1 (stereo not drawn)
Solution: 23.1

Exercise: Output measured inhibition for this item: Oc1ccc(C2CC(c3ccccc3)=NN2c2ccc(Cl)cc2)cc1 (stereo not drawn)
Solution: 31.6

Exercise: Output measured inhibition for this item: CC(C)(C)C1=NN(c2ccc(Cl)cc2)C(c2ccc(O)c(F)c2)C1 (stereo not drawn)
Solution: 29.7

Exercise: Output measured inhibition for this item: Oc1ccccc1C1=NN(c2cccc(Cl)c2)C(c2cc(F)c(O)c(F)c2)C1 (stereo not drawn)
Solution: 45.2

Exercise: Output measured inhibition for this item: CC(C)(C)C1=NN(c2ccc(Cl)cc2)C(c2cccc(O)c2)C1 (stereo not drawn)
Solution: 17.4

[a] Oc1ccc(C2CC(c3cccs3)=NN2c2ccc(Br)cc2)cc1 (stereo not drawn)
[b] Oc1ccc(C2CC(c3ccccc3O)=NN2c2ccc(Cl)cc2)cc1O (stereo not drawn)
Exercise: Rank a against b by their inhibition values and give the higher one. Refer to your chosen entry by its label in the reply.
Solution: b
(b: 44.1%, a: 21.4%)
